Source listed as patent US9868728B2.

# assayed target: NOX2 (Homo sapiens, UniProt P04839)
# Construct: isolated plasma membranes from human neutrophils as a source for Nox2-p22phox; from tissue; host or cells: Plasma membranes of human neutrophils (Nox2-p22phox); cytosolic factors recombinant from E. coli
# Sequence (P04839 2-570 limits assumed): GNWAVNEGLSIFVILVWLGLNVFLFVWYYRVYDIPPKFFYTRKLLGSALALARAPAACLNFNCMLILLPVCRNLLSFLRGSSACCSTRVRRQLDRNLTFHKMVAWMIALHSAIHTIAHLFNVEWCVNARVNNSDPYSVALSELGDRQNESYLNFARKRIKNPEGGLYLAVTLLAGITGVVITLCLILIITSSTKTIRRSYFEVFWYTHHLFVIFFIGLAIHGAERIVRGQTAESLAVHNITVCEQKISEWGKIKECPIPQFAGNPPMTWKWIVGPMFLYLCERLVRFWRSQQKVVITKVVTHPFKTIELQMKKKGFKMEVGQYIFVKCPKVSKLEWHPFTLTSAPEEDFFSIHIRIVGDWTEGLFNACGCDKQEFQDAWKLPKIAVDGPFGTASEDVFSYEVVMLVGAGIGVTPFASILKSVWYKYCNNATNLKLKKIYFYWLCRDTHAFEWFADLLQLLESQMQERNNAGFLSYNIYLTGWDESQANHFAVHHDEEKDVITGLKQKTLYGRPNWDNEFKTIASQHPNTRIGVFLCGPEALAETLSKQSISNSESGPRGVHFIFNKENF
# Sequence (P13498 2-195 partner limits assumed): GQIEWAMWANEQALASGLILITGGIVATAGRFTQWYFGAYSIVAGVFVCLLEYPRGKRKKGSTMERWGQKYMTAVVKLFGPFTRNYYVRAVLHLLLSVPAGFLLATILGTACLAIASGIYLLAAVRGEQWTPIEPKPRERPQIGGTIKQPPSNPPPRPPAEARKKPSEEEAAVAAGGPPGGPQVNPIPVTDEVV
# assay notes: Nox2 cell-free assay (LO12 luminescence)
# Type: biochemical
# test settings: Nox2 cell-free system; value in parentheses; read-out: % inhibition (maximum inhibition achieved at a very high concentration of the compound)
parameter: Emax (%)

Some molecules with recorded Emax:
CCSC1Nc2ccccc2C(=O)N1CCC[N+]1(CC)CCOCC1 (centres unmarked) | 99
CN(C)CCCCn1c(SCC(=O)Nc2nc(-c3ccc(Br)cc3)cs2)nc2ccccc2c1=O [AS158b] | 100
CCc1ccc(NC(=O)CSc2nc3ccccc3c(=O)n2CCCN(C)C)cc1 | 60

[P] CCN(CC)CCn1c(=S)[nH]c2ccc(Cl)cc2c1=O
[Q] CN(C)CCn1c(=S)[nH]c2ccccc2c1=O
[R] CCN(CC)CCn1c(SCC(=O)Nc2nc(-c3cccc(Br)c3)cs2)nc2ccccc2c1=O
Task: Order these by Emax, descending, and give the full ranking. Note for the reader: the ranking is given by listing the labels in the order requested.
Result: P, Q, R
(P: 80%, Q: 50%, R: 30%)

----------
# assayed target: NOX2 (Homo sapiens)
# Construct: isolated plasma membranes from human neutrophils as a source for Nox2-p22phox; cytosolic factors recombinant from E. coli
# assay notes: Nox2 cell-free assay (LO12 luminescence)
# test settings: Nox2 cell-free system; read-out: NOX2 IC50 (concentration giving half-maximal inhibition)
pIC50: −log10 of the molar value.
parameter: pIC50

Some compounds with recorded pIC50:
CN(C)CCCn1c(=S)[nH]c2c(c1=O)CCCC2 | 5.12
O=c1c2ccccc2[nH]c(=S)n1CCCN1CCOCC1 [TG6-249] | 6.00
O=c1c2cc(Cl)ccc2[nH]c(=S)n1CCCN1CCCCC1 [TG6-172] | 5.96

[I] CCN(CC)CCn1c(=S)[nH]c2ccccc2c1=O
[II] CCn1c(=S)[nH]c2ccc(F)cc2c1=O
[III] COc1cc2[nH]c(=S)n(CCCN(C)C)c(=O)c2cc1OC
[IV] CN(C)CCCn1c(SCC(=O)Nc2nc(-c3ccc(Br)cc3)cs2)nc2ccsc2c1=O
[V] COc1ccc(N(C)CCCn2c(=S)[nH]c3ccc(F)cc3c2=O)cc1
Task: Order these by pIC50, descending, and give the full ranking. Note for the reader: the ranking is given by listing the labels in the order requested.
Result: V, II, III, I, IV

[P] CN(C)CCCn1c(SCC(=O)Nc2cc(-c3ccc(F)cc3)n[nH]2)nc2ccccc2c1=O
[Q] CN(C)CCCn1c(=S)[nH]c2ccc(F)cc2c1=O [TG6-79]
[R] CN(C)CCCn1c(=S)[nH]c2cc3c(cc2c1=O)OCCO3
[S] COc1ccc(-c2csc(NC(=O)CSc3nc4ccccc4c(=O)n3CCCN(C)C)n2)cc1
[T] COc1cc2[nH]c(=S)n(N(C)C)c(=O)c2cc1OC
Task: Endpoint returns the given compounds ordered by ascending pIC50. Note for the reader: the ranking is given by listing the labels in the order requested.
Result: S, P, T, Q, R
(S: 4.96, P: 5.35, T: 5.60, Q: 5.82, R: 6.10)
